Assign median log2 fold change to each entry below.
- SYSTEM_TESTED: T1, USP38, Q8NB14
- T1 chain: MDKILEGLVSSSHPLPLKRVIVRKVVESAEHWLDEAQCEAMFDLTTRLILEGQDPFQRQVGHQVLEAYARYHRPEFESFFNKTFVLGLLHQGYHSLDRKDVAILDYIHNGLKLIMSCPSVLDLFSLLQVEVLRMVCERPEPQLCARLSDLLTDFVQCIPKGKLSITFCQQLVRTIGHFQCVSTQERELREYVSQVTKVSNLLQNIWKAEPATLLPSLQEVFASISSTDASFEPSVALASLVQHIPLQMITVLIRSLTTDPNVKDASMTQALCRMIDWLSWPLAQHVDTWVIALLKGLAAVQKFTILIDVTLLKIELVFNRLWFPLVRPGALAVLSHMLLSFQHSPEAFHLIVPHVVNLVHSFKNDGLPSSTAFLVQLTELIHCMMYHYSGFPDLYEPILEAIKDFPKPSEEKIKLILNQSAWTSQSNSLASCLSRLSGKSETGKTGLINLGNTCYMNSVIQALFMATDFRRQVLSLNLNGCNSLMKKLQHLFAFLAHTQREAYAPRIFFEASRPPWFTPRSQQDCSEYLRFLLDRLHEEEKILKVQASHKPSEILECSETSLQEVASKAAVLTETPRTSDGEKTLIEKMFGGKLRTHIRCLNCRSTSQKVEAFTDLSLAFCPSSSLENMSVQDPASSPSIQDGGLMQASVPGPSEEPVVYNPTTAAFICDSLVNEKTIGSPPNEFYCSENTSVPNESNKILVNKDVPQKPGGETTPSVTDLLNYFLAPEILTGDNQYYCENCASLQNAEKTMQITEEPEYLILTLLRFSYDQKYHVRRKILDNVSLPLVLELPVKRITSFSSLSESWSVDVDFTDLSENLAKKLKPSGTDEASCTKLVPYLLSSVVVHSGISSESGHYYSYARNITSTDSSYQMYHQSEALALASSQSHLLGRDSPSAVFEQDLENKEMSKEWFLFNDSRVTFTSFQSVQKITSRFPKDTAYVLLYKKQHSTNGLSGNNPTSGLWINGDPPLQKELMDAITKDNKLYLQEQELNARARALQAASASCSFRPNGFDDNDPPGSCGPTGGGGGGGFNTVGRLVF
- TEST_NAME: median log2 fold change of GCK-ALFA target abundance (FLAG IP / Myc IP barcode read proportion) (log2 ratio); each designed protein is fused to an ALFA-tag nanobody in HEK293 cells to bring the named protein to FLAG-tagged glucokinase (GCK); Myc marks an untargeted standard; higher = target protein stabilised (more abundant)
- CONDITION_SET: target protein: 3xFLAG-MCP-GCK-ALFA reporter; HEK293 landing pad (RPLP)
Numbers only.

Please review the following examples before continuing.
usp_38_diff_out_18_28_368 (protein) SEEERRELERRLEELTKRLDELIDEATAESTRALTAHPDDEAVWALVDALFDALGAAAAALNRARELLREGGPLEEVQKELDRAEAALKEAEALLAELKA ... 0.199
usp_38_diff_out_16_37_208 (protein) AEAKLAEFAAFMERAIEEARRLAEEARRLAEEGAPVEEIERLLEELRRLLDEVVERTTEVLEEVPEHADEILALYDRAATEIAEAGQEIREELRRRREEE ... -0.00395
usp_38_diff_out_18_28_363 (protein) EEERRRRLEAELEALRARLDALITEATAAITEALTAHPDDEEVWRLVDELLDALGRAAAALEEARRLLREGGPLEEVERLLREAERELERAERLLEELKA ... -0.0876
usp_38_diff_out_16_37_211 (protein) MEEEIEKARKEMEEHLEKALELAERALKLVEEGASEAEIEKAMQEATDALLKAGRAAAELIHLDPSLEDEVVARYDEVATRVAALLREVQEALRARRAAE ... 0.0682
usp_38_diff_out_15_85_154 (protein) EAEELKREIEEEIRRAEELLAEAEALLADPAAPLEEIEAVLDEAARALGRAEALARELRRRFPEYREYVKEVLERLDELTDRLLALETEAFERRAEEDLA ... -0.0616
usp_38_diff_out_15_91_164 (protein) MSSKTIATKGTRDYLKDAAAEAKELGLEETAKALEEAAALADQLLDLLEQLEKAEKEGADQAEIDKLRKEAKELDAKLNEKISELVPGLAELEQKRIERE ... 0.19

Give one value of median log2 fold change per listed binder.
1. usp_38_diff_out_5_91_615 (protein) EERRKELIKKAKEAAKKLKEAAELLEKGEDYTKEIEEAIKLYKELAEALAGGNARERRLSLTAAGAAIALEKLDEYPKELQIAMLKAHAEVTKQMAEELE
2. usp_38_diff_out_16_109_171 (protein) SADEEADRLLAEAAIRNLRALAEAAEAELEKLEARGASPEVLAAYRDLAELARRAAEEIERALEEGRDLRETTDREWDRVGAAAARAAELRRAEARRRSA
3. usp_38_diff_out_1_153_31 (protein) SELEELRERIERLTREARELEREARELIESGEATREKVDELADRLGRLAVELRELRSKAAESGEYYKELKPLFEEAEEALNRAVDALNEAGRLVFEREAE
4. usp_38_diff_out_18_28_430 (protein) AEEEIKAKIEAAEKEMDKLIDEYVKVAEEAFLKLDESDKGEELEEAINKMADALGKAAAAVNEMRRNRDDPAAVEAELEKFKKAKKEAEEYIKKIKELLK
5. usp_38_diff_out_2_113_467 (protein) DPEERREEAELYRDIILEGADKLLRLAERGMLTPDRTRVMLGGIVHAAREAMELDPSTRPTIEEVIEKLERVRKLVEGKNPEIAKEVERAIEELKEILKE
6. usp_38_diff_out_5_91_621 (protein) EERRKELIKLAEEAAKLLEKAAELLEKGEDYTEAIKKAIELYKKLAEELKGGGPRERRLSLTAAGAAIALEELPKYSKELQIAMLKELADVTKELAEELK

A)
1: 0.0701; 2: -0.352; 3: 0.15; 4: -0.244; 5: 0.0135; 6: 0.214

Parameter requested: median log2 fold change. Apply to each item below.
1. usp_38_diff_out_5_164_592 (protein) GVEKYLEELQKITDEAIKELKELLEEAKENPEKLEEYKKKATEKTNEAIDKMNEITTKALEEHPEQADTILAHYDEQVTKLLTEYNEVLKEIEELKKKKE
2. usp_38_diff_out_9_42_625 (protein) MKELEEKREETLKLIAEAGRYVDEVIERLAKLDPELARELRREAAEAHDKIVELTQEANKYYLAGEETKEEFLAKLDEIKKIVDELRKRAEELLAAAEAA
3. usp_38_diff_out_18_28_366 (protein) SMEEREKLEKELEELKKELDALIDEATALATEALTAHPDDEEVWALVDELFDSLGKAAAHLNRARELLREGGPLEEVEKELKEAKEHLEKAKELLAKLKA
4. usp_38_diff_out_1_147_14 (protein) SAADEADAAAQAEIDERLRRFARESLDDFEANRDRYSPDRATVALGGLITTAIELGDRELLLRAAALLLKDPAVRAAVLARLDPAARAAFEEAEAEVRAA
5. usp_38_diff_out_18_28_362 (protein) AAAERARLEARLRALGARLDALITDATAAVTAALTAHPDDAAVWALVDALWDALGKAAAAVNEARELLRAGGPAEEVERALEAAEAALAEAQALLAQLRA

A)
[0.0989, 0.146, -0.062, 0.247, -0.0207]
